Test system: IGROV1 ovarian
Test: NCI tumour cell line growth inhibition, 48 h
TGI values for the molecules below.

{"molecule": "N#Cc1cnc2cc(OC[C@H](O)CO)c(NC(=O)CC3CSSC3)cc2c1Nc1ccc(OCc2cccc(F)c2)c(Cl)c1", "TGI": "1.39 µM"}
{"molecule": "CC(=O)OC[C@]1(C(=O)C(O)c2ccoc2)[C@H](C)CC[C@@]23COC(=O)C2=CCC[C@@H]31 (stereo partly drawn)", "TGI": "> 10 µM"}
{"molecule": "CN(C)S(=O)(=O)c1ccc(NC(=O)COC(=O)c2ccc(S(=O)(=O)N3CCCCC3)cc2)cc1", "TGI": "> 100 µM"}
{"molecule": "CCN(CC)CCNc1ccc2nnn3c4ccc(OC)cc4c(=O)c1c23", "TGI": "22.9 µM"}
{"molecule": "COc1cc2c(cc1OCCCCOc1cc(-c3ccc(F)cc3)nc(C)n1)N=C[C@@H]1CCCN1C2=O", "TGI": "12.2 µM"}
{"molecule": "Nn1c(CCCCCCCCc2nnc(COc3c(O)ccc4ccccc34)n2N)nnc1COc1c(O)ccc2ccccc12", "TGI": "> 100 µM"}
{"molecule": "O=C(Cn1ccc(=O)[nH]c1=O)Nc1ccc(C(=O)O)c(O)c1", "TGI": "> 100 µM"}
{"molecule": "C[N+](C)(C)CC(=O)N/N=C(/Cc1nc2c3c(ccc2[nH]c1=O)C(=O)c1ccccc1C3=O)C(=O)Nc1ccc(Cl)c(Cl)c1", "TGI": "> 100 µM"}

----------
Test system: CAKI-1 renal
Experiment: NCI tumour cell line growth inhibition, 48 h

{"molecule": "CC1SC(c2c(Cl)cccc2Cl)N(NC(=O)c2[nH]c3ccc(F)cc3c2-c2ccccc2)C1=O (centres undefined)", "TGI": "4.85 µM"}
{"molecule": "COc1c(CCC[P+](c2ccccc2)(c2ccccc2)c2ccccc2)cc2c(c1OC)OCO2", "TGI": "7.35 µM"}
{"molecule": "CCSC1=CC(=O)c2nc3ccccc3c3ccnc1c23", "TGI": "9.12 µM"}
{"molecule": "c1cc(-c2cn3ccsc3n2)ccn1", "TGI": "> 100 µM"}
{"molecule": "CCN(Cc1ccc(F)c(F)c1)c1ccc(CO)c(Cl)c1", "TGI": "27.5 µM"}
{"molecule": "CCCN=Cc1cc(Cc2ccc(O)c(C=NCCC)c2)ccc1O", "TGI": "73.8 µM"}
{"molecule": "N#C/C(=C1\\OC(=O)C(c2ccc(Br)cc2)=C1O)c1ccc(Br)cc1", "TGI": "35.6 µM"}
{"molecule": "O=C1c2ccccc2-c2c1c1ccccc1c(=O)n2CCCNCCCNCCCn1c2c(c3ccccc3c1=O)C(=O)c1ccccc1-2", "TGI": "1.7 µM"}
{"molecule": "Cc1[c-]onc1C.Cc1[c-]onc1C.[Ag].[Ag].[NH-]S(=O)(=O)c1ccc(N=Nc2cc(N=Nc3ccc(S([NH-])(=O)=O)cc3)c3c(NC(=O)C(Cl)Cl)cccc3c2OC(=O)C(Cl)Cl)cc1", "TGI": "14.2 µM"}

----------
TGI values for the molecules below.
Test system: SN12C renal
Test: NCI tumour cell line growth inhibition, 48 h

{"molecule": "CC1(C)O[C@@H]2COC(=O)[C@@H]2O1", "TGI": "> 100 µM"}
{"molecule": "O=C(Nc1cccc2cnccc12)c1cc2c(cc1Cl)Sc1nccn1S2(=O)=O", "TGI": "30.5 µM"}
{"molecule": "COc1cc(C2c3cc4c(cc3OC(NN=C(C)C)C2C)OCO4)cc(OC)c1O (stereo not drawn)", "TGI": "> 100 µM"}
{"molecule": "O=c1c2c([nH]c3cc4c(cc13)OCO4)-c1ccccc1CC2", "TGI": "> 100 µM"}
{"molecule": "O=C([O-])c1ccccc1Nc1ccccn1.O=C([O-])c1ccccc1Nc1ccccn1.[Ni+2]", "TGI": "> 100 µM"}
{"molecule": "Cc1ccncc1.[O]=[Ge].[O]=[Ge].[O]=[Ge].[O]=[Ge].[O]=[Ge].[O]=[Ge][OH].[O]=[Ge][OH]", "TGI": "> 100 µM"}
{"molecule": "CC(C)(C)OC(=O)C#CC[C@H]1CCCC1/C=C/C(O)=C1/C(=O)NC(CCCNC(=O)OC(C)(C)C)C1=O (stereo partly drawn)", "TGI": "> 100 µM"}
{"molecule": "CNS(=O)(=O)NN(C)S(=O)(=O)c1ccc(F)cc1", "TGI": "> 100 µM"}
{"molecule": "CCN(CC)c1ccc(C(=C2C=CC(=[N+](CC)Cc3cccc(S(=O)(=O)O)c3)C=C2)c2ccc(N(CC)Cc3cccc(S(=O)(=O)O)c3)cc2)cc1", "TGI": "> 100 µM"}
{"molecule": "CCCC[C@H](NC(=O)[C@H]1CCCN1C)C(=O)N(C)[C@H](C[C@@H](OC(C)=O)c1nc(C(=O)N[C@@H](Cc2ccccc2)C[C@H](C)C(=O)OCC)cs1)C(C)C", "TGI": "8.41 µM"}
{"molecule": "CN(C(=O)C12C3C4C5C3C1(C(=O)O)C5C42)C(C)(C)C (stereo not drawn)", "TGI": "> 100 µM"}
{"molecule": "O=C(Cn1ccc(=O)[nH]c1=O)Nc1ccc(C(=O)O)c(O)c1", "TGI": "> 100 µM"}
{"molecule": "O=C(CC(=O)CC(O)(C(F)(F)F)C(F)(F)F)CC(O)(C(F)(F)F)C(F)(F)F", "TGI": "> 10 µM"}
{"molecule": "Cc1cn2c(/C=C3/C(=O)Nc4cccc(Cl)c43)c(Cl)nc2s1", "TGI": "> 100 µM"}
{"molecule": "COC1(C(=O)N[C@@H](C)c2ccc(-n3cc(F)cn3)nc2)CCC(c2nc(C)cc(Nc3cc(C)[nH]n3)n2)CC1 (stereo partly drawn)", "TGI": "12.4 µM"}
{"molecule": "Cc1cc(-c2nc3c(O)cccc3s2)ccc1N", "TGI": "90.7 µM"}
{"molecule": "CCN(CC)CCn1ccc(=O)c2cc3c(=O)ccn(CCN(CC)CC)c3c(C)c21", "TGI": "21.3 µM"}
{"molecule": "COC(=O)c1ccccc1/C=C1/Cc2ccccc2C1=O", "TGI": "36.5 µM"}
{"molecule": "CCN1C(=O)N(CC)C2C1NN=c1s/c(=C\\c3cccnc3)c(=O)n12 (stereo not drawn)", "TGI": "> 100 µM"}
{"molecule": "CC/C=C\\C=C/C(=O)N/C=C/CC1Cc2cccc(O)c2C(=O)O1 (stereo not drawn)", "TGI": "38.1 µM"}
{"molecule": "CNC(=O)n1ccc2cc(Oc3ccnc(NC(=O)c4ccc(C5CCN(CCO)CC5)cc4)c3)c(OCCOC)cc21", "TGI": "27.9 µM"}
{"molecule": "Cc1c(C(=O)/C=C/c2csc3ccccc23)[n+](=O)c2ccccc2n1[O-]", "TGI": "4.72 µM"}
{"molecule": "CCCCCCCCCCCCOC(=S)NCCCC", "TGI": "45.2 µM"}
{"molecule": "COC(=O)[C@H](Cc1cn(C)cn1)NC(=O)[C@H](Cc1c[nH]c2ccccc12)NC(=O)Nc1cc(C(F)(F)F)cc(C(F)(F)F)c1", "TGI": "> 10 µM"}
{"molecule": "COC(=O)CCC1CCc2c(OC)ccc(O)c2C1=O (stereo not drawn)", "TGI": "> 100 µM"}
{"molecule": "CC1(C)C(c2ccccc2)=[N+]([O-])C(C)(C)N1O", "TGI": "> 10 µM"}
{"molecule": "NC(=S)N/N=C(/CC(=O)c1ccccc1)C(=O)Nc1ccc(Cl)c(Cl)c1", "TGI": "> 100 µM"}
{"molecule": "COc1ccccc1NC(=O)C1=C(C)NC(C)=C(C(=O)Nc2ccccc2OC)C1c1ccccc1F", "TGI": "> 100 µM"}
{"molecule": "CC(C)=C[C@@H]1C[C@H](n2cc(C)c(=O)[nH]c2=O)ON1CCO", "TGI": "> 100 µM"}
{"molecule": "C=C1[C@@H](O)C[C@@]23CC[C@@H]4[C@@]5(C)CC[C@@H](OC(C)=O)C(C)(C)[C@@H]5C[C@@H](OC5OC(COC(C)=O)C(O)C(O)C5O)[C@@]4(C)C2=CC[C@H]3[C@H]1C (stereo partly drawn)", "TGI": "21 µM"}
{"molecule": "COc1cc(C2c3cc4c(cc3OC(N3CCCC3)C2C)OCO4)cc(OC)c1OC (stereo not drawn)", "TGI": "28 µM"}
{"molecule": "CCN(CC)S(=O)(=O)c1ccc(OC)c(Nc2ncc(-c3ccccc3)o2)c1", "TGI": "> 25 µM"}
{"molecule": "ClCCn1c(CCl)nc2ccc(Cl)cc21", "TGI": "0.708 µM"}
